These measurements were taken from patent US20030135173A1.

# Tested on: S. aureus (MN8)
# EXPERIMENTAL DETAILS: microbe, parasite or virus in culture
# Type: cell-based
# CONDITION DETAILS: Staphylococcus aureus, read-out: Reduction of Toxin %, Table 3; 0.5% test compound
MEASURED METRIC: inhibition at 0.5 %

compound=O=C(O)c1cc(O)c(O)c(O)c1 measured_on="S. aureus (MN8)" result_value=95%
compound=CC(=O)N[C@@H](Cc1ccc(O)cc1)C(=O)O measured_on="S. aureus (MN8)" result_value=69%
compound="O=C(O)/C=C/c1ccccc1 [Trans-cinnamic acid]" measured_on="S. aureus (MN8)" result_value=82%
compound=OCCc1ccccc1 measured_on="S. aureus (MN8)" result_value=98%
